From: patent US6864068B2

test system: F culmorum; assay: Specific antifungal activity of Rs-AFP2 isoforms in SMF− and SMF+ media; assay type: cell-based; conditions: 1/IC50 of mutant divided by that of yRs-AFP2 x 100; 48 hour incubation; low ionic strength medium; preliminary tests
metric: RELATIVE SPECIFIC ACTIVITY (%) IN MEDIUM SMF−

INSERT INTO measurements (substance, obs_value) VALUES
  ('yRs-AFP2/F40M (QKLCQRPSGTWSGVCGNNNACKNQCIRLEKARHGSCNYVMPAHKCICYFPC; listed as Raphanus sativus)', 30),
  ('yRs-AFP2: yeast-expressed wild-type Rs-AFP2 (QKLCQRPSGTWSGVCGNNNACKNQCIRLEKARHGSCNYVFPAHKCICYFPC; listed as Raphanus sativus) [reference compound]', 100),
  ('yRs-AFP2/N37R (QKLCQRPSGTWSGVCGNNNACKNQCIRLEKARHGSCRYVFPAHKCICYFPC; listed as Raphanus sativus)', 100),
  ('yRs-AFP2/L28R (QKLCQRPSGTWSGVCGNNNACKNQCIRREKARHGSCNYVFPAHKCICYFPC; listed as Raphanus sativus)', 39),
  ('yRs-AFP2/F49R (QKLCQRPSGTWSGVCGNNNACKNQCIRLEKARHGSCNYVFPAHKCICYRPC; listed as Raphanus sativus)', 18),
  ('yRs-AFP2/K44Q (QKLCQRPSGTWSGVCGNNNACKNQCIRLEKARHGSCNYVFPAHQCICYFPC; listed as Raphanus sativus)', 100);
